Sourced from patent US20090280138A1

Biological target: T1, MHC class I molecule A*0201 (biotin (bound via biotin to streptavidin-coated plates))
T1 construct: also called A2; HLA-A2
Assay: iTopia affinity assay (ED50), peptide titration on plate-bound MHC
pEC50: −log10 of the molar value.
Assay Endpoint: pEC50

Binder: PALCECSEA [5T4 9 mer peptide 32 (PALCECSEA)]
Value Observed: 5.40
//
Binder: GMVVAALLA [5T4 9 mer peptide 99 (GMVVAALLA)]
Value Observed: 6.22
//
Binder: FLTGNQLAV [5T4 9 mer peptide 49 (FLTGNQLAV)]
Value Observed: 6.00
//
Binder: LTYVSFRNL [5T4 9 mer peptide 125 (LTYVSFRNL)]
Value Observed: 6.40
